Here, each record is paired with measured activity change, negative = inhibition data.
Experiment: HMLE_shECad viability reduction – cell-based, CellTiter-Glo luminescence, dry powder, set 6, dose response (AID 504667)
Conditions: HMLE_shECad viability, CellTiter-Glo luminescence, 72 h; at 19.5 µM (top of the series)
Results filed as inconclusive are left out. Active and inactive are the calls of the source.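 The calls were made as follows: active = signal drops with a fitted half-maximal dose within ten times the top tested dose, in every replicate test; inconclusive = replicate tests disagree, or flat partial drop, or poor fit; inactive = the rest, including effects in the wrong direction.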

{"columns": ["compound string", "result"],
 "data": [
  ["Cc1csc(NC(=O)c2ccc(COc3cccc(S(C)(=O)=O)c3)o2)n1", "-5.39% (inactive)"],
  ["O=C(Nc1nncs1)c1ccc(COc2ccccc2)o1", "-0.185% (inactive)"]
]}

Task: # return recorded activity change, negative = inhibition for entry `CCN(CC)C(=O)c1ccc(COc2ccccc2)o1`
Output: -1.82% (inactive)

Task: # return recorded activity change, negative = inhibition for entry `C/C(=C\C(=O)NC1=NCCS1)c1ccc(CC(C)C)cc1`
Output: -2.19% (inactive)

Task: # return recorded activity change, negative = inhibition for entry `Cc1csc(NC(=O)c2ccc(COC(C)(C)C)o2)n1`
Output: -7.02% (inactive)

Task: # return recorded activity change, negative = inhibition for entry `CC(C)NC(=O)c1ccc(COc2ccccc2)o1`
Output: -15.6% (inactive)

Task: # return recorded activity change, negative = inhibition for entry `CNC(=O)c1csc(NC(=O)c2ccc(COc3ccccc3)o2)n1`
Output: -0.72% (inactive)

Task: # return recorded activity change, negative = inhibition for entry `CC(C)c1ccc(/C=C/C(=O)Nc2nc3ccccc3s2)cc1`
Output: -8.38% (inactive)

Task: # return recorded activity change, negative = inhibition for entry `COCc1ccc(C(=O)Nc2nc(C)cs2)o1`
Output: -7.05% (inactive)

Attribution: PubChem BioAssay AID504667
